B1: HDV Ribozyme (parent)
chain: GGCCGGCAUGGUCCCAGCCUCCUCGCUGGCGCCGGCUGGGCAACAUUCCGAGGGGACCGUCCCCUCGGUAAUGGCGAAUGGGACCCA

variants of: B1; assay: self-cleavage, relative activity (ratio to wild type); higher = more cleavage; co-transcriptional
Rule: self-cleavage under 0.1 gives class 0, otherwise class 1.

Example entries begin here.
mutant_name="G6U A77G" class_name="class 1"
mutant_name="U9G U27C" class_name="class 1"
mutant_name="G25U C85U" class_name="class 1"
mutant_name="G11A G68A" class_name="class 1"

Kindly determine if self-cleavage recorded for C57A A83G is above or exactly 0.1.
class 1

Can you check C75A U79C next?
class 0
